Would you kindly list Papp B→A for each of these compounds?
- procedure-summary: Apparent permeability from basolateral to apical side in human Caco2 cells
- Format: ADME, cell-based
- protocol-conditions: Caco-2
Field format: number, assumed ×10⁻⁶ cm/s, no unit text.

Request: State, in one line, measured Papp B→A of C[C@@H]1c2nnc(-c3ccccn3)n2CCN1C(=O)c1cccc(Cl)c1Cl
Response: 52.1

Request: Please give measured Papp B→A of the following entry: C[C@H]1Cn2c(nnc2-c2ccc(F)cc2)CN1C(=O)c1cccc(Cl)c1Cl
Response: 41.6

Request: Tell me its Papp B→A given C[C@H]1Cn2c(nnc2-c2ccc(F)cc2)CN1C(=O)c1cccc(C(F)(F)F)c1Cl as the entry.
Response: 53.2

###

Answer each item with its documented fraction unbound.
- procedure-summary: Protein binding in rat brain
- Type: ADME, tissue-based
- protocol-conditions: read-out: PB (converted)
// return just the number, without any unit appended

Request: Report measured fraction unbound; entry is C[C@@H]1c2nnc(-c3ccccn3)n2CCN1C(=O)c1cccc(Cl)c1Cl
Response: 0.11

Request: Determine its reported fraction unbound: C[C@H]1Cn2c(nnc2-c2ccc(F)cc2)CN1C(=O)c1cccc(Cl)c1Cl
Response: 0.09

Request: Complete the entry with fraction unbound for C[C@H]1Cn2c(nnc2-c2ccc(F)cc2)CN1C(=O)c1cccc(C(F)(F)F)c1Cl
Response: 0.07

###

- procedure-summary: Solubility in pH 7 solution
- Assay type: physicochemical
readout-label: solubility

Request: Tell us which solubility value is on record for C[C@H]1Cn2c(nnc2-c2cc(F)ccn2)CN1C(=O)c1cccc(Cl)c1Cl
Response: 350 µM

Request: For the compound C[C@H]1Cn2c(nnc2-c2ccc(F)cc2)CN1C(=O)c1cccc(Cl)c1Cl , report solubility.
Response: 158 µM

Request: Check the records and state solubility for C[C@@H]1c2nnc(-c3ccccn3)n2CCN1C(=O)c1cccc(Cl)c1Cl
Response: > 400 µM

Request: Indicate its recorded solubility; the compound in question is COc1ccnc(-c2nnc3n2C[C@H](C)N(C(=O)c2cccc(Cl)c2Cl)C3)c1
Response: 260 µM

###

- procedure-summary: Drug level in plasma of Sprague-Dawley rat at 30 mg/kg, po after 0.5 hrs
- Type: ADME, organism-based
readout-label: concentration at 0.5 h
Note: a bare number is incomplete; add the unit.

Request: Specify concentration at 0.5 h for C[C@H]1Cn2c(nnc2-c2ccc(F)cc2)CN1C(=O)c1cccc(Cl)c1Cl and stop.
Response: 252 ng/mL

Request: Give the reported concentration at 0.5 h for this compound. C[C@H]1Cn2c(nnc2-c2ccc(F)cc2)CN1C(=O)c1cccc(C(F)(F)F)c1Cl
Response: 1460 ng/mL

Request: Determine from records and report concentration at 0.5 h for C[C@@H]1c2nnc(-c3ccccn3)n2CCN1C(=O)c1cccc(Cl)c1Cl
Response: 2520 ng/mL

###

- procedure-summary: Apparent permeability from apical to basolateral side in human Caco2 cells
- Type: ADME, cell-based
- protocol-conditions: Caco-2
readout-label: Papp A→B (×10⁻⁶ cm/s)
Report the figure in ×10⁻⁶ cm/s without appending any unit label.

Request: Output Papp A→B of C[C@H]1Cn2c(nnc2-c2ccc(F)cc2)CN1C(=O)c1cccc(C(F)(F)F)c1Cl
Response: 37.3

Request: State, in one line, measured Papp A→B of C[C@@H]1c2nnc(-c3ccccn3)n2CCN1C(=O)c1cccc(Cl)c1Cl
Response: 73.4

Request: Look up and state reported Papp A→B for C[C@H]1Cn2c(nnc2-c2ccc(F)cc2)CN1C(=O)c1cccc(Cl)c1Cl
Response: 43.3

###

- procedure-summary: Drug level in brain of Sprague-Dawley rat at 30 mg/kg, po after 0.5 hrs
- Type: ADME, organism-based
- protocol-conditions: read-out: Drug uptake
readout-label: concentration at 0.5 h

Request: Retrieve concentration at 0.5 h measured for C[C@H]1Cn2c(nnc2-c2ccc(F)cc2)CN1C(=O)c1cccc(Cl)c1Cl and print it.
Response: 1560 ng/mL

Request: Provide only the value of recorded concentration at 0.5 h for C[C@@H]1c2nnc(-c3ccccn3)n2CCN1C(=O)c1cccc(Cl)c1Cl
Response: 5510 ng/mL

Request: Respond only with concentration at 0.5 h recorded for C[C@H]1Cn2c(nnc2-c2ccc(F)cc2)CN1C(=O)c1cccc(C(F)(F)F)c1Cl
Response: 6740 ng/mL

###

- procedure-summary: Drug level in brain of Sprague-Dawley rat at 10 mg/kg, sc after 0.5 hrs
- protocol-conditions: read-out: Drug uptake
readout-label: concentration at 0.5 h (ng/mL)
Respond with the bare value in ng/mL.

Request: Hello, please tell me recorded concentration at 0.5 h for this one: COc1ccnc(-c2nnc3n2C[C@H](C)N(C(=O)c2cccc(Cl)c2Cl)C3)c1
Response: 3880
